Hey, just so you know, these numbers are from PubChem BioAssay AID540276.

Assay: qHTS for inhibitors of binding or entry into cells for Marburg Virus
Details: Marburg virus pseudotyped entry inhibition, cell reporter; series mostly up to 37.8 µM
The campaign covered roughly 300,000 compounds. About 5,400 (1.8%) were called active. Roughly 28% stayed inconclusive and do not appear here. The call rests on the fitted dose curve; tested in HEK293 cells. Shown is part of a subset that was picked to be rich in actives.
Respond using exactly one of the listed classes: active, inactive

Answered examples (3):
O=C1COc2ccc(C(=O)COC(=O)CCOc3ccccc3)cc2N1 | inactive
CCc1cccc(C)c1NC(=S)N(CCCN1CCN(C)CC1)Cc1cccs1 | active
O=C(O)CCCc1ccccc1 | inactive

What call does the record list for O=C(NCC(=O)N1CCN(c2ncc(C(F)(F)F)cc2Cl)CC1)c1ccc(Br)o1 ? inactive

Also check COc1ccc(/C=C/C(=O)NC(=S)N2CCCC(C(N)=O)C2)cc1 (stereo not given) inactive

Also check COc1ccc(CCN(C)CCN2C(=O)c3ccccc3C2=O)cc1OC inactive

Also check CC(C)(C)S(=O)(=O)c1ccccc1-c1noc(-c2ccccc2)c1C(N)=O inactive

Also check CC(=O)OC[C@H]1O[C@H](CCO/N=C(\C)CCN2CCCCc3nc(C)c(C)cc32)C=C[C@@H]1OC(C)=O inactive

Also check Cc1ccc(NC(=O)CSC2=C(C#N)[C@H](c3ccc4c(c3)OCO4)CC(=O)N2)cc1C inactive

Also check CC1CCN(C(=O)CCc2nnc3ccc(NCc4ccco4)nn23)CC1 active
